target: EGF receptor partially purified by A431 cell line (Homo sapiens); construct: A431 cell membrane fraction, which was used for the assay as an enzyme source of partially purified EGF receptor; endogenous in cells; assay: EGFR tyrosine kinase inhibitory action (A431 cell membrane fraction, 32P-ATP, Angiotensin II substrate); settings: EGF-stimulated, 10 μM ATP, in ice for 30 min
Label t when IC50 is strictly below 3 nM; at or above that, label f.

{"SMILES_STRUCTURE": "CCN1CCN(C(C)(C)C#Cc2cc3ncnc(Nc4ccc(F)c(Cl)c4)c3cc2NS(C)(=O)=O)CC1", "TARGET_ENTITY": "EGF receptor partially purified by A431 cell line (Homo sapiens)", "ASSIGNED_CATEGORY": "t"}

Prompt: Please state whether IC50 is below 3 nM for CN1CCN(C(C)(C)C#Cc2cc3ncnc(Nc4ccc(F)c(Cl)c4)c3cc2NS(C)(=O)=O)CC1
Response: t

Prompt: Determine if C=CC(=O)Nc1cc2c(Nc3ccc(F)c(Cl)c3)ncnc2cc1C#CC(C)(C)N1CCNCC1 shows IC50 strictly lower than 3 nM.
Response: t

Prompt: Bench note: check whether CCOc1cc2ncnc(Nc3ccc(F)c(Cl)c3)c2cc1C#CC(C)(C)N1CCCN(C)CC1 shows IC50 below 3 nM
Response: t

====

# IC50 annotations
target: EGF receptor partially purified by A431 cell line (Homo sapiens); construct: A431 cell membrane fraction, which was used for the assay as an enzyme source of partially purified EGF receptor; endogenous in cells; assay: EGFR tyrosine kinase inhibitory action (A431 cell membrane fraction, 32P-ATP, Angiotensin II substrate); conditions: EGF-stimulated, 10 μM ATP, in ice for 30 min
Record the value in nM, omitting the unit from your answer.

Use the examples below as a reference point.
{"COMPOUND": "CCOc1cc2ncnc(Nc3ccc(F)c(Cl)c3)c2cc1C#CC(C)(C)N1CCOCC1 [1bk]", "IC50, nM": 2.1}
{"COMPOUND": "CCOc1cc2ncnc(Nc3ccc(F)c(Cl)c3)c2cc1C#CC(C)(C)N(CC)CCC(=O)OC [1bab]", "IC50, nM": 5.6}
{"COMPOUND": "CCOc1cc2ncnc(Nc3ccc(F)c(Cl)c3)c2cc1C#CC(C)(C)N1CCN(S(C)(=O)=O)CC1 [1bad]", "IC50, nM": 4}
{"COMPOUND": "CCC(C#Cc1cc2ncnc(Nc3ccc(F)c(Cl)c3)c2cc1NS(C)(=O)=O)(CC)N1CCN(C)CC1 [1cr]", "IC50, nM": 3.4}
{"COMPOUND": "CC(C)(C#Cc1cc2ncnc(Nc3ccc(F)c(Cl)c3)c2cc1NS(C)(=O)=O)N1CCCC1 [1cx]", "IC50, nM": 2.8}

Prompt: # return recorded IC50 for input CN1CCN(C2(C#Cc3cc4ncnc(Nc5ccc(F)c(Cl)c5)c4cc3NS(C)(=O)=O)CCCCC2)CC1 [1cm]
Response: 5.2

Prompt: Note down IC50 recorded for CC(C)(C#Cc1cc2ncnc(Nc3ccc(F)c(Cl)c3)c2cc1NS(C)(=O)=O)N1CCN(CC#N)CC1 [1ca]
Response: 7.7

Prompt: Item COc1cc2c(Nc3ccc(F)c(Cl)c3)ncnc2cc1C#CC(C)(C)N1CCN(CC#N)CC1 [1bj] : provide IC50
Response: 2.9

====

target: EGF receptor partially purified by A431 cell line (Homo sapiens, UniProt P00533); construct: A431 cell membrane fraction, which was used for the assay as an enzyme source of partially purified EGF receptor; endogenous in cells; assay: EGFR tyrosine kinase inhibitory action (A431 cell membrane fraction, 32P-ATP, Angiotensin II substrate); details: EGF-stimulated, 10 μM ATP, in ice for 30 min
Sequence (P00533 25-1210): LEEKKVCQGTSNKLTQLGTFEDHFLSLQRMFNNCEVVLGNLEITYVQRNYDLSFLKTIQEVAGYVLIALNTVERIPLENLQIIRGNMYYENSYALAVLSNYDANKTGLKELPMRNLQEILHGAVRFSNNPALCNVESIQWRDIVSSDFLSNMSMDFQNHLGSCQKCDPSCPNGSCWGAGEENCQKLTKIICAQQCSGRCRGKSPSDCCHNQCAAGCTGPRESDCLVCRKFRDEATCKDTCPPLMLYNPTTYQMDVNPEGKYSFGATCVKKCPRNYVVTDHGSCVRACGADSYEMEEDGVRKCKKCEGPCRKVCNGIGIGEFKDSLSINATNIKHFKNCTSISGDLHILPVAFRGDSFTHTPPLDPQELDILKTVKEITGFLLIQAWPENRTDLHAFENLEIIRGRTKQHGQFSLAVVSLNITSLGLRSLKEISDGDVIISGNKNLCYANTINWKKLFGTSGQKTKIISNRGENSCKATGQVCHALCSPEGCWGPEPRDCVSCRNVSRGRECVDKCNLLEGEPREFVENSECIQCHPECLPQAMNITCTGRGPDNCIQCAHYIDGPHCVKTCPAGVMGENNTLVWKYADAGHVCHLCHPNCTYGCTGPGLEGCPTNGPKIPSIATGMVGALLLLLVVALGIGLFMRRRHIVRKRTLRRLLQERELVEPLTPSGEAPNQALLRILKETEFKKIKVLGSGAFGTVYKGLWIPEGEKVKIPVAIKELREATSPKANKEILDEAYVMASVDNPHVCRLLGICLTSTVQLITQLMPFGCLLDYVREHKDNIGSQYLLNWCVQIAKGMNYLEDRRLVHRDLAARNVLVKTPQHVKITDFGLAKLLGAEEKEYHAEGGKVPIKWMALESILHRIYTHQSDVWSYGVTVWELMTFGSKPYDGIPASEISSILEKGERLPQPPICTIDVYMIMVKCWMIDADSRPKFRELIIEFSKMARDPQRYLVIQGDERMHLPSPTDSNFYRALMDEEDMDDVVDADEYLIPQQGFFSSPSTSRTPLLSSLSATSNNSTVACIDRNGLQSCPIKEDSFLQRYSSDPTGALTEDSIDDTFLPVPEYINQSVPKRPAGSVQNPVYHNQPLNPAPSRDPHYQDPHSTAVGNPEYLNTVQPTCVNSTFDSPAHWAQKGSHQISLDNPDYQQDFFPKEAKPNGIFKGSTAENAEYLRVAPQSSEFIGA
REPORTED_PROPERTY: IC50 (nM)
I only need the number, in nM, no unit after it.

Known results for molecules:
{"MOLECULE": "C=CC(=O)Nc1cc2c(Nc3ccc(F)c(Cl)c3)ncnc2cc1C#CC(C)(C)N1CCOCC1 [1b]", "MEASUREMENT_UNITS": "nM", "IC50": 1.3}
{"MOLECULE": "CCOc1cc2ncnc(Nc3ccc(F)c(Cl)c3)c2cc1C#CC(C)(C)N1CCN(C)CC1 [1bp]", "MEASUREMENT_UNITS": "nM", "IC50": 2.1}
{"MOLECULE": "CCOc1cc2ncnc(Nc3ccc(F)c(Cl)c3)c2cc1C#CC(C)(C)N1CCN(CCC#N)CC1 [1bae]", "MEASUREMENT_UNITS": "nM", "IC50": 2.5}
{"MOLECULE": "COCCN1CCN(C(C)(C)C#Cc2cc3ncnc(Nc4ccc(F)c(Cl)c4)c3cc2NS(C)(=O)=O)CC1 [1cv]", "MEASUREMENT_UNITS": "nM", "IC50": 1.8}
{"MOLECULE": "CCOc1cc2ncnc(Nc3ccc(F)c(Cl)c3)c2cc1C#CC(C)(C)N(CC)CC [1br]", "MEASUREMENT_UNITS": "nM", "IC50": 5.7}
{"MOLECULE": "C#Cc1cccc(Nc2ncnc3cc(OCC)c(C#CC(C)(C)N4CCOCC4)cc23)c1 [1baj]", "MEASUREMENT_UNITS": "nM", "IC50": 3.3}
{"MOLECULE": "CCOc1cc2ncnc(Nc3ccc(F)c(Cl)c3)c2cc1C#CC(CC)(CC)N1CCN(C)CC1 [1bag]", "MEASUREMENT_UNITS": "nM", "IC50": 5.1}

Prompt: Provide IC50, system EGF receptor partially purified by A431 cell line (Homo sapiens, UniProt P00533), entry CCOc1cc2ncnc(Nc3ccc(F)c(Cl)c3)c2cc1C#CC(C)(C)N1CCN(CC)CC1 [1bz]
Response: 2.2
